target: GST-RBDα/KRAS (Homo sapiens); construct: we created a fusion of the RBD (amino acids 133 – 314) with GST; expressed in transfected cells; host or cells: E. coli strain SNS126 (cassette integrated via pAH68); test: GST-RBDα/KRAS reverse two-hybrid system (RTHS), SICLOPPS screen; format: cell-based, E. coli; details: arabinose induced expression of the cyclic peptide
Residues, ends and D or L forms follow the SMILES beside them.
Experimental Endpoint: regrowth of the GST-RBDα/KRAS RTHS on selective media with IPTG

compound="CC(C)C[C@@H]1NC(=O)[C@H](CS)NC(=O)[C@H](Cc2c[nH]c3ccccc23)NC(=O)[C@H](Cc2c[nH]c3ccccc23)NC(=O)[C@H](Cc2ccc(O)cc2)NC(=O)[C@H](Cc2c[nH]c3ccccc23)NC1=O [cyclo-CLWYWW, Cyclo-CLWYWW] (cyclo(CLWYWW))" measured_value=regrowth
compound="CC[C@H](C)[C@@H]1NC(=O)[C@H](C(C)C)NC(=O)[C@H](CS)NC(=O)[C@H](C(C)C)NC(=O)[C@H](C(C)C)NC(=O)[C@H](CC(C)C)NC1=O [cyclo-CVILVV, Cyclo--CVILVV] (cyclo(CVILVV))" measured_value=regrowth
compound="CC(C)C[C@@H]1NC(=O)[C@H](CCCCN)NC(=O)[C@H](CS)NC(=O)[C@H](CC(C)C)NC(=O)[C@H](C(C)C)NC(=O)[C@H](C(C)C)NC1=O [cyclo-CKLVVL, Cyclo-CKLVVL] (cyclo(CKLVVL))" measured_value=regrowth
compound="CC[C@H](C)[C@@H]1NC(=O)[C@H](CCCNC(=N)N)NC(=O)[C@H](CS)NC(=O)[C@H]([C@@H](C)CC)NC(=O)[C@H](C(C)C)NC(=O)[C@H](C(C)C)NC1=O [cyclo-CRIVVI, Cyclo-CRIVVI] (cyclo(CRIVVI))" measured_value=regrowth

* * *

target: GST-RBDα/KRAS (Homo sapiens, UniProt P42336); construct: we created a fusion of the RBD (amino acids 133 – 314) with GST; expressed in transfected cells; host or cells: E. coli strain SNS126 (cassette integrated via pAH68); experiment: GST-RBDα/KRAS reverse two-hybrid system (RTHS), SICLOPPS screen; format: cell-based, E. coli; details: arabinose induced expression of the cyclic peptide
Sequence (P42336 133-314): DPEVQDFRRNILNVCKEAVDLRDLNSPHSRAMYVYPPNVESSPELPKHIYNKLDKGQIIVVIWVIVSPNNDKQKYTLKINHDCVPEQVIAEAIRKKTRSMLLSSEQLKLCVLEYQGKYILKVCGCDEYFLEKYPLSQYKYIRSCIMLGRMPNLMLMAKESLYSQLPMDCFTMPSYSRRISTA
Residues, ends and D or L forms follow the SMILES beside them.
Experimental Endpoint: regrowth of the GST-RBDα/KRAS RTHS on selective media with IPTG

compound="CSCC[C@@H]1NC(=O)[C@H](CS)NC(=O)[C@H](CCCNC(=N)N)NC(=O)CNC(=O)CNC(=O)[C@H](CO)NC1=O [cyclo-CMSGGR, Cyclo-CMSGGR] (cyclo(CMSGGR))" system_tested="GST-RBDα/KRAS (Homo sapiens, UniProt P42336)" measured_value=regrowth
compound="CC(C)C[C@@H]1NC(=O)[C@H](Cc2ccc(O)cc2)NC(=O)[C@H](CC(C)C)NC(=O)[C@H](CC(C)C)NC(=O)[C@H](Cc2c[nH]c3ccccc23)NC(=O)[C@H](CS)NC1=O [cyclo-CWLLYL, Cyclo-CWLLYL] (cyclo(CWLLYL))" system_tested="GST-RBDα/KRAS (Homo sapiens, UniProt P42336)" measured_value=regrowth
compound="CC(C)C[C@@H]1NC(=O)[C@H](CS)NC(=O)[C@H](Cc2ccc(O)cc2)NC(=O)[C@H](Cc2c[nH]c3ccccc23)NC(=O)[C@H](Cc2c[nH]c3ccccc23)NC(=O)[C@H](C(C)C)NC1=O [cyclo-CLVWWY, Cyclo-CLVWWY] (cyclo(CLVWWY))" system_tested="GST-RBDα/KRAS (Homo sapiens, UniProt P42336)" measured_value=regrowth
